- assay.protocol: Cell Viability - LYMP1-002 - Assay at 16 hr (AID 948)
- assay.conditions: LYMP1-002 lymphoblastoid cell viability; series mostly up to 92.2 µM
- Description: NIH Chemical Genomics Center [NCGC] NIH Molecular Libraries Screening Centers Network [MLSCN] National Institutes of Environmental Health Sciences [NIEHS] National Toxicology Program [NTP] We have developed a 1536-well cell-based assay for quantitative high throughput screening (qHTS) against a number of cell lines to determine in vitro cytotoxicity of small molecules. […] 8. Detection; Luminescence; Viewlux plate reader […]
Results filed as inconclusive are left out. Calls of active or inactive are those of the source. Calls follow the shape of the dose curve; as a rule, active = well fitted cell-killing curve with a large enough effect; inconclusive = small, poorly fitted or top-dose-only effect; inactive = flat fitted curve, though single readings scatter.
Pick one: active, inactive

compound	label
O=Cc1ccc(Cl)c(Cl)c1	inactive

Query string: What classification did CN1[C@H]2CC(OC(=O)[C@H](CO)c3ccccc3)C[C@H]1[C@H]1O[C@H]12 (stereo partly specified) end up with in this test?
Result string: inactive

Query string: In this assay, the call recorded for C/C=C1\C(=O)C[C@H]2[C@@H]3CCC4=CC(=O)CC[C@]4(C)[C@H]3CC[C@]12C was what?
Result string: inactive

Query string: Please let me know the test result on file for ClC1=C(Cl)C(Cl)(Cl)C(Cl)=C1Cl .
Result string: inactive

Query string: Recorded test outcome, item c1ccc2c(c1)ccc1cc3c(ccc4ccccc43)cc12
Result string: inactive

Query string: Could you check what this test reported for Cc1cc(O)c(C(C)(C)C)cc1Sc1cc(C(C)(C)C)c(O)cc1C ?
Result string: active
